Task for the reader: assign each of the following compounds its reported pIC50.
# Subject Of Test: UniProt P35869
# Sequence (P35869 1-848): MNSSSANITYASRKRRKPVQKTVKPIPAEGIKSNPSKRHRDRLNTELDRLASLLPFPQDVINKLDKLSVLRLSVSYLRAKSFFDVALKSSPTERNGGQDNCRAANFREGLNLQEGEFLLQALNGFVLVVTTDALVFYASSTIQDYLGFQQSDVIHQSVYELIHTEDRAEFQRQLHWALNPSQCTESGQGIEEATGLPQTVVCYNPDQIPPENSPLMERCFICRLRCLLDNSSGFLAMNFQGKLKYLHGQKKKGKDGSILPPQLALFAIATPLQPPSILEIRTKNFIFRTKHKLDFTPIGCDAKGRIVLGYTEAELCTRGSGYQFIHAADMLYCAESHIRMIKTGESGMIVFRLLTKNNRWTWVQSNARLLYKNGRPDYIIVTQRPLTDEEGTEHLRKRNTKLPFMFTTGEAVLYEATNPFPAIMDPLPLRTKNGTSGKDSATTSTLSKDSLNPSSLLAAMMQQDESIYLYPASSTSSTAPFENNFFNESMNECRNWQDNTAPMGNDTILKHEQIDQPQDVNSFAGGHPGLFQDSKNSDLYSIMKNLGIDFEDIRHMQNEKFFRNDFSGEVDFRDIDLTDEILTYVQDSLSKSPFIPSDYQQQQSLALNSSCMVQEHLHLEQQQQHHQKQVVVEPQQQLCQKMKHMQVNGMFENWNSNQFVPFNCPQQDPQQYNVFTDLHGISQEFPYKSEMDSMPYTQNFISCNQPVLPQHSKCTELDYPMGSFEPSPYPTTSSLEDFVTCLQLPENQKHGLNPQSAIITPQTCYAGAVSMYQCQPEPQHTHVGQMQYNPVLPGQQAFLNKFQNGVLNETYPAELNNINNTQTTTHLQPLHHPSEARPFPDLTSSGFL
# Experiment Notes: DRE-Luciferase Reporter Assay (Example 1A)
# Type: cell-based
# Parameters: IC50
# Condition: concentration which inhibits half of the luciferase activity induced by an AHR activating ligand; murine (Hepa1-6, Hepa-1c1c7) or human (HepG2) DRE-luciferase reporter cells, cell line used not stated
pIC50: −log10 of the molar value.

Report pIC50 for Cc1cc(N)ccc1NC(=O)c1ccnn1C please. < 5.82

Report pIC50 for Cc1cc(C2OC2c2ccccc2C)ccc1NC(=O)c1ccnn1C (centres unmarked) please. > 6.30

Report pIC50 for Cc1cc(C(=O)N2CCCc3ccccc32)ccc1NC(=O)c1ccnn1C please. < 5.82

Report pIC50 for Cc1ccccc1NC(=O)c1ccc(NC(=O)c2ccnn2C)c(C)n1 please. 6.00 to 6.30

Report pIC50 for Cc1ccccc1/C=C/c1ccc(NC(=O)c2cncn2C)c(C)c1 please. < 5.82

Report pIC50 for Cc1cc(/C=C/c2ccccc2)ccc1NC(=O)c1ccnn1C please. > 6.30

Report pIC50 for Cc1cc(/C=C/c2cccnc2C)ccc1NC(=O)c1ccnn1C please. < 5.82

Report pIC50 for Cc1ccccc1CNc1ccc(NC(=O)c2ccnn2C)c(C)c1 please. < 5.82

Report pIC50 for Cc1cc(C2OC2c2ccccc2)ccc1NC(=O)c1ccnn1C (centres unmarked) please. < 5.82

Report pIC50 for Cc1cc(COc2ccccc2C)ccc1NC(=O)c1ccnn1C please. > 6.30

Report pIC50 for Cc1ccccc1CCc1ccc(NC(=O)c2ccnn2C)c(C)c1 please. < 5.82

Report pIC50 for Cc1cc(NC(=O)c2ccccc2C)ccc1NC(=O)c1ccnn1C please. < 5.82

Report pIC50 for Cc1ccccc1NC(=O)c1ccc(NC(=O)c2ccnn2C)c(C)c1 please. < 5.82

Report pIC50 for Cc1ccccc1/C=C\c1ccc(NC(=O)c2ccnn2C)c(C)c1 please. < 5.82

Report pIC50 for Cc1ccccc1NCc1ccc(NC(=O)c2ccnn2C)c(C)c1 please. < 5.82

Report pIC50 for Cc1ccccc1/C=C/c1ccc(NC(=O)c2ccn[nH]2)c(C)c1 please. < 5.82

Report pIC50 for Cc1ccccc1/N=N/c1ccc(NC(=O)c2ccccn2)c(C)c1 please. < 5.82

Report pIC50 for Cc1ccccc1-c1ccc2cc(NC(=O)c3ccnn3C)ccc2n1 please. < 5.82

Report pIC50 for Cc1ccccc1/C=C/c1ccc(NC(=O)c2ccnn2C)c(C)c1 please. > 6.30

Report pIC50 for Cc1cc(-c2ccc3ccccc3c2)ccc1NC(=O)c1ccnn1C please. < 5.82

Report pIC50 for Cc1cc(/N=N/c2ncccc2C)ccc1NC(=O)c1ccnn1C please. < 5.82

Report pIC50 for Cn1nccc1C(=O)Nc1ccc2nc(-c3ccccc3)ccc2c1 please. > 6.30

Report pIC50 for Cc1cc(-c2cc3ccccc3cn2)ccc1NC(=O)c1ccnn1C please. < 5.82

Report pIC50 for Cc1cc(C(=O)n2ccc3ccccc32)ccc1NC(=O)c1ccnn1C please. < 5.82

Report pIC50 for Cc1ccccc1/N=N/c1ccc(NC(=O)c2ccnn2C)cc1C please. > 6.30

Report pIC50 for Cc1ccccc1/C=C/c1ccc(NC(=O)c2ccnn2C)cc1 please. 6.00 to 6.30

Report pIC50 for Cc1ccccc1C#Cc1ccc(NC(=O)c2ccnn2C)c(C)c1 please. > 6.30

Report pIC50 for Cc1ccccc1NCc1ccc(NC(=O)c2ccnn2C)c(C)n1 please. 5.82 to 6.00

Report pIC50 for Cc1cc(C(=N)Nc2ncccc2C)ccc1NC(=O)c1ccnn1C please. < 5.82

Report pIC50 for Cc1cc(C(=O)Nc2ncccc2C)ccc1NC(=O)c1ccnn1C please. < 5.82

Report pIC50 for Cc1ccccc1/N=N/c1ccc(C(=O)Nc2ccnn2C)c(C)c1 please. > 6.30

Report pIC50 for Cc1cc(C(=O)N2CCc3ccccc32)ccc1NC(=O)c1ccnn1C please. < 5.82
